- measurement_target: T1, human GLP-1 receptor (human, UniProt P43220 24-463)
- T1 construct: whole, on cells; also called the receptor; hGLP-1
- procedure_text: SPA, displacement of 125I-GLP-1(7-36)NH2, BHK membranes, 0.001% HSA
*1 amine or outer side, *2 acyl side, *3 side chain or, on linkers, in order; H or OH if unused. Where no end group is shown, it is not given here. Side-chain parts run from the residue outwards. [ ]: non-standard residue; d: D form. The star is where a group is joined. Undecanoyl(11-OPh(4-COOH)) = O=C(O)c1ccc(OCCCCCCCCCCC(=O)*)cc1; Decanoyl(10-(4-HOOC-PhO)) = O=C(O)c1ccc(OCCCCCCCCCC(=O)*)cc1; γGlu = O=C(O)[C@H](CCC(=O)[*:2])N[*:1]; εLys = N[C@@H](CCCCN[*:1])C(=O)[*:2]; AEEA = NCCOCCOCC(=O)O; Aib = CC(C)(N)C(=O)O
Could you mark each record class 1 if its IC50 falls strictly under 0.8 nM, and class 0 if it equals or exceeds it?

H[Aib]EGTFTSDVSK([Ala-Ser-Ser-Ala-Ser-Ser-γGlu-Undecanoyl(11-OPh(4-COOH))])YLEGQAAK([Ala-Ser-Ser-Ala-Ser-Ser-γGlu-Undecanoyl(11-OPh(4-COOH))])EFIAWLVQGRG : class 1
H[Aib]EGTFTSDVSK([Gly-Ser-Ser-Gly-Ser-Ser-Gly-Ser-Ser-Gly-Ser-Ser-γGlu-Undecanoyl(11-OPh(4-COOH))])YLEGQAAK([Gly-Ser-Ser-Gly-Ser-Ser-Gly-Ser-Ser-Gly-Ser-Ser-γGlu-Undecanoyl(11-OPh(4-COOH))])EFIAWLVQGRG : class 0
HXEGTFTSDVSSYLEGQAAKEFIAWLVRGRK (Aib at 8; eps-amino of Lys26 and Lys37 each acylated with 11-(4-carboxyphenoxy)undecanoyl-gGlu-Ser-Ser-Gly-Ser-Ser-Gly) : class 1
HAEGTFTSDVSSYLEGQAAK([AEEA-AEEA-γGlu-Decanoyl(10-(4-HOOC-PhO))])EFIAHLVQGRK([AEEA-AEEA-γGlu-Decanoyl(10-(4-HOOC-PhO))]) [Comparative compound of Example 3a: Compound of Example 33, Chem. 52, in WO 2011/080103] : class 0
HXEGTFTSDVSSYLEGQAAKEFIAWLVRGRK (not fully specified; Aib at 8; eps-amino of Lys26 and Lys37 each acylated with 10-(4-carboxyphenoxy)decanoyl via the gGlu-2xOEG linker (as Example 1, only the linker differs)) [Comparative compound of Example 1a: Compound of Example 2, Chem. 21, in WO 2011/080103] : class 0
H[Aib]EGTFTSDVSK([εLys-Gly-Ser-Ser-Gly-Ser-Ser-Gly-Ser-Ser-Gly-Ser-Ser-γGlu-Undecanoyl(11-OPh(4-COOH))])YLEGQAAK([εLys-Gly-Ser-Ser-Gly-Ser-Ser-Gly-Ser-Ser-Gly-Ser-Ser-γGlu-Undecanoyl(11-OPh(4-COOH))])EFIAWLVQGRG : class 0
